Test system: primary human fibroblasts derived from IPF patients (LL29 cells), α-smooth muscle actin
Experiment: Inhibition of fibrotic process: αSMA in TGF-β1 treated LL29 fibroblasts
Format: cell-based
Conditions: Homo sapiens, Fibroblast, 96 h; LL29 cells, TGF-β1 20 ng/mL, 4 days, % cells positive for αSMA
What EC50 was measured for each of the following?
Answer format: numeric, nM implied, no suffix.

Enquiry: Return reported EC50; argument: CC(C)Cn1cc(C(=O)Nc2cc3cc(-c4cncn4C)ccc3cn2)cn1
Return: 88

Enquiry: Return reported EC50; argument: Cn1cc(-c2ccc3cnc(NC(=O)c4coc(C5CCN(CCF)CC5)n4)cc3c2)cn1
Return: 9620

Enquiry: Return reported EC50; argument: Cc1nnc(-c2ccc3cnc(NC(=O)c4coc(C5CCNCC5)n4)cc3c2)s1
Return: 2580

Enquiry: Return reported EC50; argument: CN1CCC(n2cc(C(=O)Nc3cc4cc(-c5cnn(C)c5)ccc4cn3)nn2)CC1
Return: 983

Enquiry: Return reported EC50; argument: Cn1ccc(C(=O)Nc2cc3cc(-c4cncn4C)ccc3cn2)n1
Return: 1530

Enquiry: Return reported EC50; argument: Cn1cc(-c2ccc3cnc(NC(=O)c4cn(C5CCNCC5)nn4)cc3c2)nn1
Return: 562

Enquiry: Return reported EC50; argument: Cc1nnc(-c2ccc3cnc(NC(=O)c4cn(C5CCN(C)CC5)nn4)cc3c2)s1
Return: 4360

Enquiry: Return reported EC50; argument: Cc1ncc(-c2ccc3cnc(NC(=O)Cn4ccnc4)cc3c2)o1
Return: 187

Enquiry: Return reported EC50; argument: CN1CCC(n2cc(C(=O)Nc3cc4cc(-c5cnn(C)c5)ccc4cn3)cn2)CC1
Return: 94

Enquiry: Return reported EC50; argument: Cc1csc(C(=O)Nc2cc3cc(-c4cncn4C)ccc3cn2)n1
Return: 3190

Enquiry: Return reported EC50; argument: [2H]C([2H])([2H])n1cc(-c2ccc3cnc(NC(=O)c4cnn(C5CCN(C)CC5)c4)cc3c2)cn1
Return: 84

Enquiry: Return reported EC50; argument: CN1CCC(n2cc(C(=O)Nc3cc4cc(-c5cn(C)nn5)ccc4cn3)cn2)CC1
Return: 83

Enquiry: Return reported EC50; argument: Cn1cc(-c2ccc3cnc(NC(=O)c4coc(C5CCNCC5)n4)cc3c2)cn1
Return: 170

Enquiry: Return reported EC50; argument: CN1CCC(c2nc(C(=O)Nc3cc4cc(-c5cn(C)nn5)ccc4cn3)co2)CC1
Return: 248

Enquiry: Return reported EC50; argument: CC(C)n1cc(C(=O)Nc2cc3cc(-c4cncn4C)ccc3cn2)cn1
Return: 2500

Enquiry: Return reported EC50; argument: CCN1CCC(n2cc(C(=O)Nc3cc4cc(-c5cnn(C)c5)ccc4cn3)cn2)CC1
Return: 69

* * *

System: primary human fibroblasts derived from IPF patients (LL29 cells), α-smooth muscle actin
Assay: Inhibition of fibrotic process: αSMA in TGF-β1 treated LL29 fibroblasts
Format: cell-based
Details: Homo sapiens, Fibroblast, 96 h; LL29 cells, TGF-β1 20 ng/mL, 4 days, % cells positive for αSMA
What EC50 was measured for each of the following?
Answer format: numeric, nM implied, no suffix.

Enquiry: For the record Cn1cc(-c2ccc3cnc(NC(=O)c4csc(C5CCNCC5)n4)cc3c2)cn1 [Compound 25] , what value of EC50 is listed for primary human fibroblasts derived from IPF patients (LL29 cells), α-smooth muscle actin?
Return: 1190

Enquiry: For the record Cn1cc(-c2ccc3cnc(NC(=O)c4cn(C5CCN(CCF)CC5)nn4)cc3c2)cn1 [Compound 13] , what value of EC50 is listed for primary human fibroblasts derived from IPF patients (LL29 cells), α-smooth muscle actin?
Return: 260

Enquiry: For the record Cc1ncc(-c2ccc3cnc(NC(=O)c4cnn(C(C)C)c4)cc3c2)n1C [Compound 61] , what value of EC50 is listed for primary human fibroblasts derived from IPF patients (LL29 cells), α-smooth muscle actin?
Return: 318

Enquiry: For the record CC(C)N1CCC(n2cc(C(=O)Nc3cc4cc(-c5cn(C)nn5)ccc4cn3)cn2)CC1 [Compound 32] , what value of EC50 is listed for primary human fibroblasts derived from IPF patients (LL29 cells), α-smooth muscle actin?
Return: 203

Enquiry: For the record Cn1cc(CC(=O)Nc2cc3cc(-c4cncn4C)ccc3cn2)cn1 [Compound 47] , what value of EC50 is listed for primary human fibroblasts derived from IPF patients (LL29 cells), α-smooth muscle actin?
Return: 94

Enquiry: For the record CC(C)N1CCC(c2nc(C(=O)Nc3cc4cc(-c5cnn(C)c5)ccc4cn3)co2)CC1 [Compound 22] , what value of EC50 is listed for primary human fibroblasts derived from IPF patients (LL29 cells), α-smooth muscle actin?
Return: 2910

Enquiry: For the record Cc1nc(C(=O)Nc2cc3cc(-c4cncn4C)ccc3cn2)cs1 [Compound 57] , what value of EC50 is listed for primary human fibroblasts derived from IPF patients (LL29 cells), α-smooth muscle actin?
Return: 2830

Enquiry: For the record CCN1CCC(n2cc(C(=O)Nc3cc4cc(-c5cn(C)nn5)ccc4cn3)cn2)CC1 [Compound 31] , what value of EC50 is listed for primary human fibroblasts derived from IPF patients (LL29 cells), α-smooth muscle actin?
Return: 298
